This collection of values is drawn from ChEMBL document CHEMBL1201862.

System: HCC 2998
Experiment: NCI tumour cell line growth inhibition, 48 h
Activity calls are given as the source filed them. Cut-off read from the data, not from the text of the source: active = GI50 up to about 1.1 µM and inactive = higher.

{"molecule": "COc1cc(/C=C/c2ccc(Br)cc2)cc(OC)c1OC", "GI50": "7.6 µM (inactive)"}
{"molecule": "CC1=C[C@H]([C@H]2C=C(C)C(C(N)=O)=CN2Cc2c(Cl)cccc2Cl)N(Cc2c(Cl)cccc2Cl)C=C1C(N)=O", "GI50": "> 75 µM (inactive)"}
{"molecule": "O=C(Nn1c(-c2ccccc2)nc2ccccc2c1=O)c1ccc(CS)cc1", "GI50": "> 100 µM (inactive)"}
{"molecule": "Cc1n(Cc2ccccc2)c2c([n+]1C)C(=O)c1ccccc1C2=O", "GI50": "0.236 µM (active)"}
{"molecule": "O=C(N/N=C/c1c(-c2ccccc2)no[n+]1[O-])N1CCOCC1", "GI50": "> 100 µM (inactive)"}
{"molecule": "Cn1c(=O)nc2n(-c3ccc(Cl)cc3)c3cc(Cl)ccc3nc-2c1=O", "GI50": "4.49 µM (inactive)"}
{"molecule": "CC(=O)Nc1ccc(N2C(=O)/C(=C\\c3cccc(Oc4ccccc4)c3)SC2c2ccccc2)cc1 (centres undefined)", "GI50": "> 100 µM (inactive)"}
{"molecule": "O=C(c1c(F)c(F)c(F)c(F)c1F)c1c(F)c(F)c(F)c(F)c1F", "GI50": "1.67 µM (inactive)"}
{"molecule": "CCC(CC)C(=O)OC[n+]1cccc(-c2c(COC(=O)NC(C)C)c(COC(=O)NC(C)C)c3n2CCC3)c1", "GI50": "> 100 µM (inactive)"}

----------
System: 786-0
Assay: NCI tumour cell line growth inhibition, 48 h
Activity calls are given as the source filed them. Cut-off read from the data, not from the text of the source: active = GI50 up to about 1.1 µM and inactive = higher.

{"compound": "CCN(CC)c1c(C(=O)/C=C/c2ccccc2)c(-c2ccccc2)nn(C)c1=O", "GI50": "7.31 µM (inactive)"}
{"compound": "O=c1nc(NC(c2ccccc2)(c2ccccc2)c2ccccc2)ccn1CCCl", "GI50": "18.1 µM (inactive)"}
{"compound": "O=C1C=C2C(=NC34CCCCC3C(c3ccccc3)C3=C(c5ccccc5CC3)N24)c2ccccc21 (stereo not given)", "GI50": "> 10 µM (inactive)"}
{"compound": "COC(=O)c1ccccc1C1CN=NC12Cc1c(ccc(C)c1C)C2=O (stereo not given)", "GI50": "38.4 µM (inactive)"}
{"compound": "CCC1=C(C)/C(=C/c2[nH]c(C(Br)Br)c(CC)c2C)N=C1C(Br)Br", "GI50": "63.2 µM (inactive)"}
{"compound": "CC(C)c1cccc(C(C)C)c1NC(=O)/C(Cc1nc2ccc(Cl)cc2nc1O)=N\\NC(=O)C[N+](C)(C)C", "GI50": "> 100 µM (inactive)"}
{"compound": "CC(C)C(=O)Oc1cc2c(=O)oc3c(OC(=O)C(C)C)c(OC(=O)C(C)C)cc4c(=O)oc(c1OC(=O)C(C)C)c2c34", "GI50": "> 100 µM (inactive)"}
{"compound": "Cc1ccc(-c2nc3cc([N+](=O)[O-])ccc3[nH]2)cc1", "GI50": "> 100 µM (inactive)"}
{"compound": "O=C(NCCCl)SCCO", "GI50": "> 100 µM (inactive)"}
{"compound": "CC1(C)CCC[C@@]2(C)C1CC[C@@]1(CO)O[C@H](C3=CC(=O)OC3O)C[C@H]12 (stereo not given in full)", "GI50": "15 µM (inactive)"}

----------
// HCT-15 GI50 records
propertyMeasured: GI50

{"molecule": "COC(=O)[C@H](Cc1ccccc1)NC(=O)N(CCNC(=O)OC(C)(C)C)c1ccccc1", "testSystem": "HCT-15", "testResult": "> 100 µM"}
{"molecule": "O=C(Nc1ccccc1[N+](=O)[O-])c1ccccc1", "testSystem": "HCT-15", "testResult": "> 100 µM"}
{"molecule": "CC(C)(Br)C(Br)CC/C(=C/CBr)CBr.CC(C)(Br)C(Br)CC/C(=C\\CBr)CBr (stereo not given)", "testSystem": "HCT-15", "testResult": "2.51 µM"}
{"molecule": "Sc1ncnc2c1ncn2C1CCCO1 (stereo not given)", "testSystem": "HCT-15", "testResult": "> 100 µM"}
{"molecule": "O=C1CSC(c2cc3cc(Br)ccc3nc2Cl)N1c1ccc(Cl)cc1 (stereo not given)", "testSystem": "HCT-15", "testResult": "16.8 µM"}

----------
Test system: SW-620
Test: NCI tumour cell line growth inhibition, 48 h
Activity calls are given as the source filed them. Cut-off read from the data, not from the text of the source: active = GI50 up to about 1.1 µM and inactive = higher.
Classes used: active, inactive

{"molecule": "COc1ccc(N2C(=O)CSC2c2cc(OC)c(OC)c(OC)c2)cc1 (stereo not given)", "testSystem": "SW-620", "discreteLabel": "inactive"}
{"molecule": "COc1nc(C(=O)O)c(Cl)c(OC)c1Cl", "testSystem": "SW-620", "discreteLabel": "inactive"}
{"molecule": "Cc1cc(S(=O)(=O)Nc2nnc3cc(C(F)(F)F)cc(C)n23)c(S)cc1Cl", "testSystem": "SW-620", "discreteLabel": "inactive"}
{"molecule": "O=c1cc(-c2ccccc2)[nH]c2ccc(N3CCOCC3)cc12", "testSystem": "SW-620", "discreteLabel": "active"}
{"molecule": "Cc1ccc2c(c1)C/C(=C\\c1ccccc1C(=O)O)C2=O", "testSystem": "SW-620", "discreteLabel": "inactive"}
{"molecule": "Clc1ccc(CCNCCNC2(c3cc4ccccc4s3)CCCCC2)cc1Cl", "testSystem": "SW-620", "discreteLabel": "inactive"}
{"molecule": "NNC(=O)C(=O)NN=C(C(Cl)(Cl)CO)C(Cl)(Cl)CO", "testSystem": "SW-620", "discreteLabel": "inactive"}
{"molecule": "O=[N+]([O-])c1ccc2nc(Cl)n[n+]([O-])c2c1", "testSystem": "SW-620", "discreteLabel": "inactive"}
{"molecule": "COc1cc(/C=C/c2ccc(Br)cc2)cc(OC)c1OC", "testSystem": "SW-620", "discreteLabel": "inactive"}
{"molecule": "CC(C)CCC[C@@H](C)C1CCC2[C@@H]3CC=C4C[C@@H](OC(=O)CCC(=O)NCC[N+](C)(C)CCCS(=O)(=O)[O-])CC[C@]4(C)C3CC[C@@]21C (stereo not given in full)", "testSystem": "SW-620", "discreteLabel": "inactive"}
{"molecule": "COc1cc2c(c(OC)c1OC)C(=O)c1c(O)cc(C)c(OC)c1C2=O", "testSystem": "SW-620", "discreteLabel": "inactive"}
{"molecule": "CCCC(=O)NC(C(=O)OCC)(N1CCOCC1)C(F)(F)F (stereo not given)", "testSystem": "SW-620", "discreteLabel": "inactive"}
{"molecule": "CCCCCC[C@H]([C@H](C)O)n1cnc2c(N)ncnc21", "testSystem": "SW-620", "discreteLabel": "inactive"}
{"molecule": "COc1ccc2oc(=O)c(CC=C(C)C)c(O)c2c1C", "testSystem": "SW-620", "discreteLabel": "inactive"}
{"molecule": "CCC(CS(=O)(=O)O)[N+](=O)[O-] (stereo not given)", "testSystem": "SW-620", "discreteLabel": "inactive"}

----------
Tested on: UACC-257
Experiment: NCI tumour cell line growth inhibition, 48 h
Active and inactive are the calls of the source. Cut-off read from the data, not from the text of the source: active = GI50 up to about 1.1 µM and inactive = higher.
Outcomes: active, inactive

{"molecule": "O=C(O)C[C@@H]1[C@@H](O)[C@@H](O)CN2C(=O)c3ccccc3[C@H]12", "testSystem": "UACC-257", "discreteLabel": "inactive"}
{"molecule": "O=C1C=C(Nc2cccnc2)c2ccccc2/C1=N/O", "testSystem": "UACC-257", "discreteLabel": "inactive"}
{"molecule": "CCC(=O)Nc1ccc(/N=N/N(C)C)cc1", "testSystem": "UACC-257", "discreteLabel": "inactive"}
{"molecule": "COc1ccc(-c2c(C#N)c(N)nc(Sc3ccccc3N)c2C#N)cc1", "testSystem": "UACC-257", "discreteLabel": "inactive"}
{"molecule": "CN(C)c1ccc2nc3c(C(=O)O)cc(O)c(O)c3[o+]c2c1", "testSystem": "UACC-257", "discreteLabel": "inactive"}
{"molecule": "O=C(NNC(=S)Nc1ccccc1)C12CC3CC(CC(C3)C1)C2", "testSystem": "UACC-257", "discreteLabel": "inactive"}
{"molecule": "CC(=O)NNC1=NN(C(C)=O)C2(S1)C(=O)Nc1ccc(Br)cc12 (configuration not stated)", "testSystem": "UACC-257", "discreteLabel": "inactive"}
{"molecule": "O=C1C=CC(=O)c2c(Cl)ccc(O)c21", "testSystem": "UACC-257", "discreteLabel": "inactive"}
{"molecule": "CN1C[C@@H]2CC(=O)CC[C@@H]2C[C@H]1C#N", "testSystem": "UACC-257", "discreteLabel": "inactive"}
{"molecule": "Nc1ncnc(NC2C=C(CO)C(O)C2O)c1[N+](=O)[O-] (configuration not stated)", "testSystem": "UACC-257", "discreteLabel": "inactive"}
{"molecule": "c1ccc(C(=NNc2nc3ccccc3o2)c2ccccn2)nc1", "testSystem": "UACC-257", "discreteLabel": "active"}
{"molecule": "COc1ccc(S(=O)(=O)O)cc1NS(=O)(=O)c1ccc(C)cc1", "testSystem": "UACC-257", "discreteLabel": "inactive"}
{"molecule": "Clc1cccc(Cl)c1C1SCc2nc3cc4ccccc4cc3n21 (configuration not stated)", "testSystem": "UACC-257", "discreteLabel": "inactive"}
{"molecule": "COc1ccc2c(c1)/C(=C\\c1c(Cl)nc3sc(C)cn13)C(=O)N2", "testSystem": "UACC-257", "discreteLabel": "inactive"}
{"molecule": "CC(=O)NNc1nc(C)c(C(/C=C/c2ccc([N+](=O)[O-])cc2)=N/N)s1", "testSystem": "UACC-257", "discreteLabel": "inactive"}
{"molecule": "O=C(OC1CC(n2cc(F)c(=O)[nH]c2=O)OC1CSC(=O)c1ccccc1)c1ccccc1 (configuration not stated)", "testSystem": "UACC-257", "discreteLabel": "inactive"}
{"molecule": "CN(C)CCCc1c[nH]c2ccccc12", "testSystem": "UACC-257", "discreteLabel": "inactive"}
